# Tested on: Mycobacterium tuberculosis
# assay_info: Antituberculosis activity against Mycobacterium tuberculosis MYC5165 harboring InhA mutant gene after 7 days by MTT assay
# Type: functional
experimental_endpoint: MIC (µM)
Give bare numbers, in µM.

As a guide, the following entries are already answered.
[[record]]
compound = "COc1ccc(/C=C/C(=O)NNC(=O)c2ccncc2)cc1"
unit_abbrev = "µM"
reading = 16

[[record]]
compound = "NNC(=O)c1ccncc1 [ISONIAZID]"
unit_abbrev = "µM"
reading = 18

[[record]]
compound = "O=C(O)c1cn(C2CC2)c2cc(N3CCNCC3)c(F)cc2c1=O [CIPROFLOXACIN]"
unit_abbrev = "µM"
reading = 5

[[record]]
compound = "CC(C)=CCOc1ccc(/C=C/C(=O)NNC(=O)c2ccncc2)cc1"
unit_abbrev = "µM"
reading = 27


Then this compound:
GET /values?readout=MIC&item= CC(C)=CCOc1ccc(/C=C/c2nnc3c4ccccc4cnn23)cc1
0.2
